test system: RSV A2 strain; assay: RSV A2-induced CPE in HEp2 cells; format: cell-based; details: human respiratory syncytial virus, HEp-2, 120 h, 1 MOI, 5 days
measured_attribute: IC50 (nM)

Cc1cnc(N2CC3(CCOCC3)C2)c(C(=O)Nc2ccc(C(=O)N3CCc4cc(C(=O)Nc5c(C)cccc5F)sc4-c4ccccc43)cc2)c1	0.017

====

Test system: RSV B Washington strain
Assay: RSV B-induced CPE in HEp2 cells
Format: cell-based
Settings: human respiratory syncytial virus, HEp-2, 144 h, 1 MOI, 6 days
Procedure: Assessment of RSV Induced CPE in HEp2 Cells HEp2 cells were seeded (10^3/well/50 μL) in 384-well plates (Catalogue number 353962, BD Falcon, Oxford, UK) in […] containing 2 mM L-glutamine and 1 mM sodium pyruvate one day before infection. […] The fluorescence of each well [545 nm (excitation)/590 nm (emission)] was determined using a multi-scanner (Clariostar: BMG, Buckinghamshire, UK). […]
pIC50: −log10 of the molar value.
measured_attribute: pIC50

Cc1cnc(N2CC3(CCOCC3)C2)c(C(=O)Nc2ccc(C(=O)N3CCc4cc(C(=O)Nc5c(C)cccc5F)sc4-c4ccccc43)cc2)c1 [Compound (I)]	7.99
